Target: KAT6A (Homo sapiens)
Construct: Recombinant human His-tagged Kat6a protein (amino acids 194-810); His
Sequence (Q92794 194-810): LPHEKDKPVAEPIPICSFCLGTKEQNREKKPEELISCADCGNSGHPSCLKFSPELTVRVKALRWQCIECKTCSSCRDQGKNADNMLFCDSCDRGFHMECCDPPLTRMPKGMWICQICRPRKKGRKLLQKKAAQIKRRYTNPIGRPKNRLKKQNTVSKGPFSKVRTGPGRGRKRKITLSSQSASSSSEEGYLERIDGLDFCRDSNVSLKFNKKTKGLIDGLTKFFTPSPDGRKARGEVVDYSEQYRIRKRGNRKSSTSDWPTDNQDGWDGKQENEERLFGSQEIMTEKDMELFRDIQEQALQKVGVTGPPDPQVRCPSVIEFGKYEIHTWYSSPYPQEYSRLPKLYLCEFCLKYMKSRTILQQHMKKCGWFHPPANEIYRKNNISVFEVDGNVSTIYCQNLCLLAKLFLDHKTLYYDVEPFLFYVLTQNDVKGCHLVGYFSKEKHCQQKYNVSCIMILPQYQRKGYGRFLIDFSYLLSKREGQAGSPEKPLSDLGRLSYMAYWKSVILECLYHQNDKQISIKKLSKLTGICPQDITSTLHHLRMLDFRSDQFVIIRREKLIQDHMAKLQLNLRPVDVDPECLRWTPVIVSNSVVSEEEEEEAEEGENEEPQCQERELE
Assay: Kat6a activity assay (TR-FRET, acetylation of biotinylated histone H4 peptide)
Conditions: recombinant human His-tagged Kat6a (amino acids 194-810), 60 mins at 22° C., read-out: KAT6A-DPF/HAT domain IC50 [mol/l] (arithmetic mean)
pIC50: −log10 of the molar value.
Readout: pIC50

CC(C)(C)c1ccc(OCc2ccccc2)c(S(=O)(=O)NC(=O)c2cc3c(F)cc(C4CC4)cc3o2)c1 [Example 60]    8.57
COCCc1ccc2cc(C(=O)NS(=O)(=O)c3ccccc3-c3ccccc3)oc2c1 [Example 26]    5.95

I: CCOc1ccc(OC(F)(F)F)cc1S(=O)(=O)NC(=O)c1cc2c(F)cc(C3CC3)cc2o1 [Example 34]
II: CC(C)c1ccc2cc(C(=O)NS(=O)(=O)c3ccccc3-c3ccccc3)oc2c1 [Example 54]
III: CC(C)Oc1ccc(C(C)(C)C)cc1S(=O)(=O)NC(=O)c1cc2c(F)cc(C3CC3)cc2o1 [Example 64]
Inquiry: List by increasing pIC50. Hello, could you send the labels back in the order asked? Thank you.
Reply text: II, I, III

P: CCOc1ccccc1S(=O)(=O)NC(=O)c1cc2c(OC)cc(C)cc2o1 [Example 13]
Q: CCCOc1ccccc1S(=O)(=O)NC(=O)c1cc2c(F)cc(C3CC3)cc2o1 [Example 40]
Inquiry: Parameter metric = pIC50. Return the lower-valued option from P and Q . Give the chosen item's label as your response.
Reply text: P

###

Molecular target: KAT6A (Homo sapiens)
Construct: Recombinant human His-tagged Kat6a protein (amino acids 194-810); His
Assay: Kat6a activity assay (TR-FRET, acetylation of biotinylated histone H4 peptide)
Conditions: recombinant human His-tagged Kat6a (amino acids 194-810), 60 mins at 22° C., read-out: KAT6A-DPF/HAT domain IC50 [mol/l] (arithmetic mean)
Source text: Kat6a inhibitory activities of the compounds described in the present invention were quantified using a Fluorescence Resonance Energy Transfer (TR-FRET) assay which measures acetylation of a synthetic, biotinylated Histone-H4-derived peptide by the enzyme. Recombinant human His-tagged Kat6a protein (amino acids 194-810), was purified in-house from Baculovirus-infected insect cells (Sf9). […]
Readout: IC50 (nM)

Past entries and their recorded results:
CCOc1ccccc1S(=O)(=O)NC(=O)c1cc2c(N(C)C)cc(C3CC3)cc2o1 [Example 45]    79.9
Cc1cc(C)c2cc(C(=O)NS(=O)(=O)c3ccccc3-c3ccccc3C)oc2c1 [Example 6]    128
O=C(NS(=O)(=O)c1ccccc1)c1cc2c(C(F)(F)F)cc(C3CC3)cc2o1 [Example 52]    138
O=C(NS(=O)(=O)c1ccccc1)c1cc2c(OC(F)F)cc(C3CC3)cc2o1 [Example 46]    148
CN(C)c1cc(C2CC2)cc2oc(C(=O)NS(=O)(=O)c3ccccc3-c3ccccc3)cc12 [Example 44]    52
CC(C)c1ccc(OCc2ccccc2)c(S(=O)(=O)NC(=O)c2cc3c(F)cc(C4CC4)cc3o2)c1 [Example 35]    5.99

P: O=C(NS(=O)(=O)c1ccccc1-c1ccccc1)c1cc2c(C(F)(F)F)cc(C3CC3)cc2o1 [Example 53]
Q: Cc1ccc2cccc(S(=O)(=O)NC(=O)c3cc4ccc(C(F)(F)F)cc4o3)c2n1 [Example 19]
Inquiry: Parameter metric = IC50. Return the lower-valued option from P and Q . Give the chosen item's label as your response.
Reply text: P
